# TEST_DESCRIPTION: clinical
# MEASUREMENT_CONDITIONS: human, in vivo, rotigotine plasma concentration Geo. Mean
METRIC: concentration at 22 h

Q: Which measured concentration at 22 h value corresponds to CCCN(CCc1cccs1)[C@H]1CCc2c(O)cccc2C1 ?
Result: 0.815 ng/mL

* * *

# TEST_DESCRIPTION: Multiple dose trial with rotating patch application sites in early-stage Parkinson's disease: rotigotine pharmacokinetics (Example 4)
# MEASUREMENT_CONDITIONS: human, in vivo, 18 mg/day, rotigotine plasma concentration Min, Hip, Day 27, 23.5 H
METRIC: concentration at […] (ng/mL)
All answers are understood in ng/mL, so give the number only.

Q: Which measured concentration at […] value corresponds to CCCN(CCc1cccs1)[C@H]1CCc2c(O)cccc2C1 [rotigotine] ?
Result: 0.261

* * *

# TEST_DESCRIPTION: clinical
# MEASUREMENT_CONDITIONS: human, in vivo, rotigotine plasma concentrations, Mean
METRIC: concentration at 12 h (ng/mL)
All answers are understood in ng/mL, so give the number only.

Q: Which measured concentration at 12 h value corresponds to CCCN(CCc1cccs1)[C@H]1CCc2c(O)cccc2C1 ?
Result: 0.911

* * *

# TEST_DESCRIPTION: Multiple dose trial with rotating patch application sites in early-stage Parkinson's disease: rotigotine pharmacokinetics (Example 4)
# MEASUREMENT_CONDITIONS: human, in vivo, 18 mg/day, rotigotine plasma concentration Max, Upper Arm; Day 30; 23.5 H
# Excerpt: Each day, a fresh patch was placed on a new skin site (abdomen, flank, upper arm, shoulder, thigh, hip) in a rotating order. The silicone transdermal patches were made in accordance with the teachings of U.S. Patent Application Publication No. US 2003/0026830 at paragraphs 38-42, U.S. Patent Application Publication No. US 2003/0027793 at paragraphs 37-41 and U.S. Pat. No. 6,884,434, columns 5-6, Example 2 and comprised the following layers and components: […]
METRIC: concentration at […] (ng/mL)
All answers are understood in ng/mL, so give the number only.

Q: Which measured concentration at […] value corresponds to CCCN(CCc1cccs1)[C@H]1CCc2c(O)cccc2C1 ?
Result: 1.67

* * *

# TEST_DESCRIPTION: clinical
# MEASUREMENT_CONDITIONS: human, in vivo, rotigotine plasma concentrations, Mean
# From the text: Each day, a fresh patch was placed on a new skin site (abdomen, flank, upper arm, shoulder, thigh, hip) in a rotating order. The silicone transdermal patches were made in accordance with the teachings of U.S. Patent Application Publication No. US 2003/0026830 at paragraphs 38-42, U.S. Patent Application Publication No. US 2003/0027793 at paragraphs 37-41 and U.S. Pat. No. 6,884,434, columns 5-6, Example 2 and comprised the following layers and components: […]
METRIC: concentration at 14 h (ng/mL)
All answers are understood in ng/mL, so give the number only.

Q: Which measured concentration at 14 h value corresponds to CCCN(CCc1cccs1)[C@H]1CCc2c(O)cccc2C1 ?
Result: 0.931

* * *

# TEST_DESCRIPTION: Multiple dose trial with rotating patch application sites in early-stage Parkinson's disease: rotigotine pharmacokinetics (Example 4)
# MEASUREMENT_CONDITIONS: human, in vivo, 18 mg/day, rotigotine plasma concentration Max, Shoulder, Days 27 & 30 Combined, 23.5 H
METRIC: concentration at […] (ng/mL)
All answers are understood in ng/mL, so give the number only.

Q: Which measured concentration at […] value corresponds to CCCN(CCc1cccs1)[C@H]1CCc2c(O)cccc2C1 ?
Result: 3.01

* * *

# TEST_DESCRIPTION: Multiple dose trial with rotating patch application sites in early-stage Parkinson's disease: rotigotine pharmacokinetics (Example 4)
# MEASUREMENT_CONDITIONS: human, in vivo, 18 mg/day, rotigotine plasma concentration Min, Hip, Day 30, 23.5 H
METRIC: concentration at […] (ng/mL)
All answers are understood in ng/mL, so give the number only.

Q: Which measured concentration at […] value corresponds to CCCN(CCc1cccs1)[C@H]1CCc2c(O)cccc2C1 ?
Result: 0.461

* * *

# TEST_DESCRIPTION: Multiple dose trial with rotating patch application sites in early-stage Parkinson's disease: rotigotine pharmacokinetics (Example 4)
# MEASUREMENT_CONDITIONS: human, in vivo, 18 mg/day, rotigotine plasma concentrations, Mean, Application Site = Abdomen; Days 27 & 30 Combined; 23.5 H
METRIC: concentration at […] (ng/mL)
All answers are understood in ng/mL, so give the number only.

Q: Which measured concentration at […] value corresponds to CCCN(CCc1cccs1)[C@H]1CCc2c(O)cccc2C1 [rotigotine] ?
Result: 0.787

* * *

# TEST_DESCRIPTION: Multiple dose trial with rotating patch application sites in early-stage Parkinson's disease: rotigotine pharmacokinetics (Example 4)
# MEASUREMENT_CONDITIONS: human, in vivo, 18 mg/day, rotigotine plasma concentration Min, Upper Arm; Days 27 & 30 Combined; 23.5 H
METRIC: concentration at […] (ng/mL)
All answers are understood in ng/mL, so give the number only.

Q: Which measured concentration at […] value corresponds to CCCN(CCc1cccs1)[C@H]1CCc2c(O)cccc2C1 ?
Result: 0.129

* * *

# TEST_DESCRIPTION: Multiple dose trial with rotating patch application sites in early-stage Parkinson's disease: rotigotine pharmacokinetics (Example 4)
# MEASUREMENT_CONDITIONS: human, in vivo, 18 mg/day, rotigotine plasma concentrations, Median, Application Site = Abdomen; Day 30; 23.5 H
METRIC: concentration at […]
Reply with the number and its unit after it.

Q: Which measured concentration at […] value corresponds to CCCN(CCc1cccs1)[C@H]1CCc2c(O)cccc2C1 ?
Result: 0.415 ng/mL

* * *

# TEST_DESCRIPTION: clinical
# MEASUREMENT_CONDITIONS: human, in vivo, Average Concentration
METRIC: concentration at 30 day

Q: Which measured concentration at 30 day value corresponds to CCCN(CCc1cccs1)[C@H]1CCc2c(O)cccc2C1 ?
Result: 0.975 ng/mL

* * *

# TEST_DESCRIPTION: clinical
# MEASUREMENT_CONDITIONS: human, in vivo, rotigotine plasma concentration Mean
METRIC: concentration at 16 h

Q: Which measured concentration at 16 h value corresponds to CCCN(CCc1cccs1)[C@H]1CCc2c(O)cccc2C1 ?
Result: 1.28 ng/mL

* * *

# TEST_DESCRIPTION: Multiple dose trial with rotating patch application sites in early-stage Parkinson's disease: rotigotine pharmacokinetics (Example 4)
# MEASUREMENT_CONDITIONS: human, in vivo, 18 mg/day, rotigotine plasma concentration Geo. Mean, Shoulder, Days 27 & 30 Combined, 23.5 H
METRIC: concentration at […] (ng/mL)
All answers are understood in ng/mL, so give the number only.

Q: Which measured concentration at […] value corresponds to CCCN(CCc1cccs1)[C@H]1CCc2c(O)cccc2C1 ?
Result: 0.82

* * *

# TEST_DESCRIPTION: clinical
# MEASUREMENT_CONDITIONS: human, in vivo, rotigotine plasma concentration Mean
METRIC: concentration at 7 h (ng/mL)
All answers are understood in ng/mL, so give the number only.

Q: Which measured concentration at 7 h value corresponds to CCCN(CCc1cccs1)[C@H]1CCc2c(O)cccc2C1 ?
Result: 1.08

* * *

# TEST_DESCRIPTION: clinical
# MEASUREMENT_CONDITIONS: human, in vivo, rotigotine plasma concentration Median
METRIC: concentration at 16 h (ng/mL)
All answers are understood in ng/mL, so give the number only.

Q: Which measured concentration at 16 h value corresponds to CCCN(CCc1cccs1)[C@H]1CCc2c(O)cccc2C1 ?
Result: 1.06

* * *

# TEST_DESCRIPTION: clinical
# MEASUREMENT_CONDITIONS: human, in vivo, rotigotine plasma concentration Median
METRIC: concentration at 22 h (ng/mL)
All answers are understood in ng/mL, so give the number only.

Q: Which measured concentration at 22 h value corresponds to CCCN(CCc1cccs1)[C@H]1CCc2c(O)cccc2C1 [rotigotine] ?
Result: 0.734

* * *

# TEST_DESCRIPTION: Multiple dose trial with rotating patch application sites in early-stage Parkinson's disease: rotigotine pharmacokinetics (Example 4)
# MEASUREMENT_CONDITIONS: human, in vivo, 18 mg/day, rotigotine plasma concentration Mean, Upper Arm; Day 27; 23.5 H
METRIC: concentration at […]
Reply with the number and its unit after it.

Q: Which measured concentration at […] value corresponds to CCCN(CCc1cccs1)[C@H]1CCc2c(O)cccc2C1 ?
Result: 0.936 ng/mL

* * *

# TEST_DESCRIPTION: Multiple dose trial with rotating patch application sites in early-stage Parkinson's disease: rotigotine pharmacokinetics (Example 4)
# MEASUREMENT_CONDITIONS: human, in vivo, 18 mg/day, rotigotine plasma concentrations, Geo. Mean, Application Site = Abdomen; Day 27; 23.5 H
METRIC: concentration at […] (ng/mL)
All answers are understood in ng/mL, so give the number only.

Q: Which measured concentration at […] value corresponds to CCCN(CCc1cccs1)[C@H]1CCc2c(O)cccc2C1 ?
Result: 0.806

Data provenance is patent US20060216336A1.
